System: AMPK
Assay: Measurement of AMPK activity by Western blot in C2C12 cells
Format: cell-based
Design: key: fold increase in threonine-172 phosphorylation
Details: 10 μM for 50 minutes, no superscript: Western blot of serine-79 and threonine-172 phosphorylation
assay_readout: AMPK activity (degree of phosphorylation of serine-79 and threonine-172)

# compound, target_of_assay, recorded_result
rows = [
    ("COc1cccc(CNc2nc(C(OC)c3ccccc3)nc3ccccc23)c1OC (centres unmarked) [Compound 364]", "AMPK", 1.2),
    ("c1ccc(-c2nc(NCCN3CCOCC3)c3ccccc3n2)cc1 [Compound 106]", "AMPK", 1.3),
    ("Fc1cccc(CCNc2nc(-c3ccccc3)nc3ccccc23)c1 [Compound 103]", "AMPK", 2.6),
    ("COC(c1ccccc1)c1nc(NCc2ccc3c(c2)OCO3)c2ccccc2n1 (centres unmarked) [Compound 363]", "AMPK", 1.4),
    ("CC(C)c1nc(NCc2ccc3c(c2)OCO3)c2ccccc2n1 [Compound 182]", "AMPK", 2.9),
    ("c1ccc(CNc2nc(C3CCCCC3)nc3ccccc23)cc1 [Compound 199]", "AMPK", 2.3),
    ("COc1cc(CNc2nc(N3CCOCC3)nc3ccccc23)cc(OC)c1OC [Compound 313]", "AMPK", 0.1),
    ("COc1cc(CNc2nc(N3CCCCC3)nc3ccccc23)cc(OC)c1OC [Compound 312]", "AMPK", 0.3),
    ("COc1cccc(CNc2nc(N3CCCC3)nc3ccccc23)c1 [Compound 279]", "AMPK", 1.3),
    ("CC(C)c1nc(NCc2cccc(C(F)(F)F)c2)c2ccccc2n1 [Compound 178]", "AMPK", 5.7),
    ("COc1ccc(CNc2nc(C(OC)c3ccccc3)nc3ccccc23)c(OC)c1 (centres unmarked) [Compound 368]", "AMPK", 5.9),
]
